experiment: In vitro cytotoxicity assay, HeLa cells (resazurin cell viability); format: cell-based; conditions: human
Form field: viability at 20 µM (one value per entry).

- Compound: "Cc1cc(/C=C/C(=O)c2cc(Br)ccc2O)c(C)n1-c1ccc([N+](=O)[O-])cc1 [Compound 10h]"
  Value qualifier: ">"
  viability at 20 µM, %: 100
- Compound: "Cc1cc(/C=C/C(=O)c2cc(Br)ccc2O)c(C)n1-c1ccc(Br)cc1 [Compound 10d]"
  Value qualifier: ">"
  viability at 20 µM, %: 100
- Compound: "Cc1cc(/C=C/C(=O)c2cc(Br)ccc2O)c(C)n1C1CCCCC1 [Compound 10l]"
  Value qualifier: "="
  viability at 20 µM, %: 99.2
- Compound: "Cc1cc(/C=C/C(=O)c2cc(Cl)ccc2O)c(C)n1-c1cccc([N+](=O)[O-])c1 [Compound 19]"
  Value qualifier: "="
  viability at 20 µM, %: 81.2
- Compound: "Cc1cc(/C=C/C(=O)c2cc(Br)ccc2O)c(C)n1-c1ccc(Cl)cc1 [Compound 10c]"
  Value qualifier: ">"
  viability at 20 µM, %: 100
- Compound: "COc1ccc2nc(Cl)c(/C=C/C(=O)c3cc(Br)ccc3O)cc2c1 [Compound 11b]"
  Value qualifier: "="
  viability at 20 µM, %: 99.3
- Compound: "O=C(/C=C/c1c[nH]cn1)c1cc(Br)ccc1O [Compound 11a]"
  Value qualifier: "="
  viability at 20 µM, %: 78.1
- Compound: "Cc1cc(/C=C/C(=O)c2cc(Br)ccc2O)c(C)n1-c1cccc([N+](=O)[O-])c1 [Compound 10i]"
  Value qualifier: "="
  viability at 20 µM, %: 51.2
